biological target: Mitogen-activated protein kinase 9 (Homo sapiens) (UniProt P45984); conditions: at 0.1 µM;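 further: values are mean inhibition of JNK2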
Sequence (P45984 whole entry, looked up): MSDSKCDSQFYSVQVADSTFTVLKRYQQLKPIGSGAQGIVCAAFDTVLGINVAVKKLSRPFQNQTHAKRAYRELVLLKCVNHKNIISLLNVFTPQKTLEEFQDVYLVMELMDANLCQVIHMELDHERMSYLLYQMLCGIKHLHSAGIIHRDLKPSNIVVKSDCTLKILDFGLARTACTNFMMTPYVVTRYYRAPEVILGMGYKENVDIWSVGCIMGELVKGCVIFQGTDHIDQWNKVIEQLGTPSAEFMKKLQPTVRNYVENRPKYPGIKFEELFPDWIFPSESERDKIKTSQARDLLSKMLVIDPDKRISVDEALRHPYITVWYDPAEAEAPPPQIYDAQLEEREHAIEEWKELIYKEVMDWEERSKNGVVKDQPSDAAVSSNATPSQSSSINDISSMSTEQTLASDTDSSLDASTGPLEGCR
result.type: inhibition (%)
Give the number; % is assumed, so skip it.

State the recorded inhibition for this entry: COc1ccc(-c2coc3ncnc(N)c23)cc1 4.38

# get_value(readout='inhibition', item= CC1=C(C(=O)Nc2ccc3[nH]ncc3c2)C(c2ccc(F)cc2)NC(=O)N1 (stereo unspecified) ) 1.75

Record request: inhibition value, item COc1cc2ncn(-c3cc(O[C@@H](C)c4ccccc4Cl)c(C(N)=O)s3)c2cc1OC 2.45

What does the record list as inhibition for c1cnn2ncc(-c3ccnc(Nc4ccc5c(c4)OCCO5)n3)c2c1 ? 12.8

Consider the compound [O-][S+]1CCN(Cc2ccc(-c3ccc4ncnc(Nc5ccc(OCc6ccccc6)c(F)c5)c4c3)o2)CC1 and give its measured inhibition. 4.53

I'd like to know its inhibition. The compound in question is Cc1nn(C)c2cc(N(C)c3ccnc(Nc4cccc(S(N)(=O)=O)c4)n3)ccc12 3.35

What value of inhibition has been reported for the following compound? CS(=O)(=O)Nc1ccc(N/C=C2\C(=O)Nc3ccccc32)cc1 0.25

What inhibition value was documented for this compound, Cc1cccc(-c2n[nH]cc2-c2ccc3ncccc3n2)n1 ? 1.26

Can you look up the measured inhibition of COc1cccc(-n2ncc3c(N/N=C/c4cccc(F)c4)ncnc32)c1 for me? 1.23

Reported inhibition, compound CCn1c(-c2nonc2N)nc2c(C#CC(C)(C)O)nc(CN3CCCC3)cc21 : ____ 0.67

So what's the measured inhibition for this one? CS(=O)(=O)CCN(CC#N)Cc1ccc(-c2ccc3ncnc(Nc4ccc(OCc5cccc(F)c5)c(Cl)c4)c3c2)o1 -0.56

Entry CC1=C(C(=O)Nc2ccc3[nH]ncc3c2)C(c2ccc3ccccc3c2)CC(=O)N1 (stereo unspecified) : reported inhibition = ? 0.73

Consider the compound shown here: COc1cc2ncn(-c3cc(OCc4ccccc4Cl)c(C(N)=O)s3)c2cc1OC What is its recorded inhibition? 2.23

Value lookup for inhibition; key = Cc1ccc(NC(=O)c2ccnc(N3CCCC3)c2)cc1-c1ccc(C(=O)NCC2CC2)cc1 2.66

Name the recorded inhibition for CC1=C(C(=O)Nc2ccc3[nH]ncc3c2)C(c2ccc(Cl)c(Cl)c2)CC(=O)N1 (stereo unspecified) . 1.22

Would you mind telling me what inhibition value was observed for Fc1cccc(COc2ccc(Nc3ncnc4sc(-c5cccs5)cc34)cc2Cl)c1 ? 0.62

Given the entry NCc1ccc(-c2nc(-c3ccc(Cl)c(O)c3)c(-c3ccncc3)[nH]2)cc1 , report its measured inhibition. 4.51

Suppose we examine the compound COc1ccc(-c2ccncc2)cc1C(N)=O ; what inhibition value has been reported? 4.22

Could you tell me which inhibition is on file for COc1cc2ncn(-c3cc(O[C@H](C)c4ccccc4Cl)c(C(N)=O)s3)c2cc1OC ? 2.72

If you can, please state the reported inhibition value of COC(=O)Nc1nc2cc(Oc3cccc(NC(=O)Nc4cc(C(F)(F)F)ccc4F)c3)ccc2[nH]1 . 2.79

Please give the measured inhibition for this compound: CCn1c(-c2nonc2N)nc2ccncc21 3.39

* * *

target: Serine/threonine-protein kinase Sgk3 (Homo sapiens) (UniProt Q96BR1); settings: at 1 µM;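 further: each value is a mean of replicate inhibition readings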
Sequence (Q96BR1 whole entry): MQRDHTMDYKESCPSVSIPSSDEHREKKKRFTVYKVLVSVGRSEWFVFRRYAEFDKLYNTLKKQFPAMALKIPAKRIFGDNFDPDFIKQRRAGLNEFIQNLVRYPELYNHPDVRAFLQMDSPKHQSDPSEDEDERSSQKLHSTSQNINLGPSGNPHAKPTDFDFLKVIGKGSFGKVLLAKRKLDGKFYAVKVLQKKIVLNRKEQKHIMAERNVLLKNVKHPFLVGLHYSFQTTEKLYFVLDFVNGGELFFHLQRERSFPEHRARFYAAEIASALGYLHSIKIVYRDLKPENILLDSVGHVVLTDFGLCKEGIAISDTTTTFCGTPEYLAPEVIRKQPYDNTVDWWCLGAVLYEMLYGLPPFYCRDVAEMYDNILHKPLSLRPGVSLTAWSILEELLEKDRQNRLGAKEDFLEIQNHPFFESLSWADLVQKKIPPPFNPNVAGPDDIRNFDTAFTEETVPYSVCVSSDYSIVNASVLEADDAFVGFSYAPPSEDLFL
For each of the molecules below, state its inhibition.
Give the value; after it, write the unit.

Identify the measured inhibition of CS(=O)(=O)CCN(CC#N)Cc1ccc(-c2ccc3ncnc(Nc4ccc(OCc5cccc(F)c5)c(Cl)c4)c3c2)o1 for Serine/threonine-protein kinase Sgk3 (Homo sapiens) (UniProt Q96BR1). 3.35%

Could you share what inhibition was measured for O=C(Nc1n[nH]c2nc(-c3ccco3)c(Br)cc12)C1CC1 , tested on Serine/threonine-protein kinase Sgk3 (Homo sapiens) (UniProt Q96BR1)? 3.45%

Serine/threonine-protein kinase Sgk3 (Homo sapiens) (UniProt Q96BR1) / inhibition / COc1ccc2cc(-c3c(-c4ccncc4)nc(-c4ccc([S+](C)[O-])cc4)n3C)ccc2c1 (stereo unspecified) : value? 4.38%

Find inhibition (Serine/threonine-protein kinase Sgk3 (Homo sapiens) (UniProt Q96BR1)) for the entry COc1cc(C)c(NC(=O)CN(C)C)cc1Nc1nc(Nc2cccc(F)c2C(N)=O)c2cc[nH]c2n1 0.16%

Look up inhibition with Serine/threonine-protein kinase Sgk3 (Homo sapiens) (UniProt Q96BR1) for this molecule: Cn1cc(C=C2C(=O)Nc3cccnc32)c2ccccc21 0.63%

Quick check: inhibition on Serine/threonine-protein kinase Sgk3 (Homo sapiens) (UniProt Q96BR1), item COc1ccc(COc2ccc(Cc3cnc(N)nc3N)cc2OC)cc1 ? 1.28%

Can you look up inhibition on Serine/threonine-protein kinase Sgk3 (Homo sapiens) (UniProt Q96BR1) for CCn1c(-c2nonc2N)nc2ccncc21 ? 0.08%

Notebook: pull reported inhibition for Serine/threonine-protein kinase Sgk3 (Homo sapiens) (UniProt Q96BR1), entry COc1cc2c(cc1Nc1nc(N3CCc4ccccc43)c3cc[nH]c3n1)N(C(=O)CN(C)C)CC2 -0.59%

What value of inhibition on Serine/threonine-protein kinase Sgk3 (Homo sapiens) (UniProt Q96BR1) does CCn1c(-c2nonc2N)nc2c(C#CC(C)(C)O)nc(CN3CCCC3)cc21 have? 0.63%

Please state recorded inhibition (tested on Serine/threonine-protein kinase Sgk3 (Homo sapiens) (UniProt Q96BR1)) of CCn1c(-c2nonc2N)nc2c(N3CCCC3)nccc21 -0.02%

Query inhibition on Serine/threonine-protein kinase Sgk3 (Homo sapiens) (UniProt Q96BR1) for CCCN1CCC=C(c2ccc(Nc3nc(Nc4ccccc4C(N)=O)c4cc[nH]c4n3)c(C)c2)C1 2.94%

Query for Serine/threonine-protein kinase Sgk3 (Homo sapiens) (UniProt Q96BR1): what inhibition does the record show for CC(=O)Nc1cccc(C#Cc2cncnc2Nc2ccc(OCc3cccc(F)c3)c(Cl)c2)n1 ? 4.12%

What value of inhibition on Serine/threonine-protein kinase Sgk3 (Homo sapiens) (UniProt Q96BR1) does N#Cc1c(NC(=O)c2cccc3ccccc23)sc2c1CCCC2 have? 2.42%

# value lookup — system Serine/threonine-protein kinase Sgk3 (Homo sapiens) (UniProt Q96BR1), readout inhibition, item NS(=O)(=O)c1ccc(N/N=C2\C(=O)Nc3ccc(C(=O)NCCc4c[nH]cn4)cc32)cc1 4.22%

API: value(readout= inhibition, system= Serine/threonine-protein kinase Sgk3 (Homo sapiens) (UniProt Q96BR1), query= COc1ccccc1Nc1ncc(-c2ccccc2)o1 ) 3.37%

API: value(readout= inhibition, system= Serine/threonine-protein kinase Sgk3 (Homo sapiens) (UniProt Q96BR1), query= Nc1ncnc2occ(-c3ccc(NC(=O)Nc4cccc(C(F)(F)F)c4)cc3)c12 ) 2.94%

Report inhibition for Cc1nnc(-c2ccc(C)c(-c3ccc(C(=O)Nc4cccc(C#N)c4)cc3)c2)o1 tested on Serine/threonine-protein kinase Sgk3 (Homo sapiens) (UniProt Q96BR1). 3.55%

Kindly state the measured inhibition obtained for Nc1nc(-c2ccccn2)c(-c2ccc3ncccc3n2)s1 with Serine/threonine-protein kinase Sgk3 (Homo sapiens) (UniProt Q96BR1). 1.48%

# get_value(readout= inhibition, system= Serine/threonine-protein kinase Sgk3 (Homo sapiens) (UniProt Q96BR1)) for COC(=O)Nc1nc2cc(Oc3ccc(NC(=O)Nc4cccc(C(=O)O)c4)cc3)ccc2[nH]1 2.6%

# get_value(readout= inhibition, system= Serine/threonine-protein kinase Sgk3 (Homo sapiens) (UniProt Q96BR1)) for COc1cc(C=NNc2ncnc3c2cnn3-c2ccccc2)ccc1O 1.32%

Value wanted: inhibition (Serine/threonine-protein kinase Sgk3 (Homo sapiens) (UniProt Q96BR1)) of entry O=C1NC(=O)C(c2ccc(Cl)cc2)=C1Nc1ccc(Cl)c(C(=O)O)c1 -4.32%

* * *

biological target: SRSF protein kinase 3 (Homo sapiens) (UniProt Q9UPE1); details: at 0.1 µM;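 further: mean of replicate inhibition values against MSSK1 kinase, profiled within the GSK PKIS kinase inhibitor set screen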
Sequence (Q9UPE1 whole entry): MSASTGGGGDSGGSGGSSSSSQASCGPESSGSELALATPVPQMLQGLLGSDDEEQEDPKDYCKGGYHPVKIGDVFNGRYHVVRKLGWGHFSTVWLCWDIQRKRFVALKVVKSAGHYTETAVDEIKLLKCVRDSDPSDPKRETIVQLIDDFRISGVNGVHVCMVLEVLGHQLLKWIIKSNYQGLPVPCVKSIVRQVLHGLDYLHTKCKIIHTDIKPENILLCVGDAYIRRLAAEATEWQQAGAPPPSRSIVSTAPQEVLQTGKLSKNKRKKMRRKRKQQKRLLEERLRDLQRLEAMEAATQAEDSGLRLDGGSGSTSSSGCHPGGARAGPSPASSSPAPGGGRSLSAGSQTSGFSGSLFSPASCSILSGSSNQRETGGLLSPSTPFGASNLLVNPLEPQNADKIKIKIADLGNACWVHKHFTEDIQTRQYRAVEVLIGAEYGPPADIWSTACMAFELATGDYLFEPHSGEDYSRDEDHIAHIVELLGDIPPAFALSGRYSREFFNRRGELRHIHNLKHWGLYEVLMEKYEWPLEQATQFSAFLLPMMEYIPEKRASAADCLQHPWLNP
Would you mind telling me the reported inhibition of each entry?
Response body: numeric value in %, unit text excluded.

Sample COc1cc2ncn(-c3cc(O[C@H](C)c4ccccc4Cl)c(C(N)=O)s3)c2cc1OC — what was its inhibition? -0.2

# inhibition lookup, item O=C1NC(=O)C(c2cccc(Cl)c2)=C1Nc1ccc(O)c(Cl)c1 -0.01

// query inhibition value for entry COc1cc(C)c(NC(=O)CN(C)C)cc1Nc1nc(Nc2cccc(F)c2C(N)=O)c2cc[nH]c2n1 2.12

Which inhibition value belongs to CS(=O)(=O)CCN(CC#N)Cc1ccc(-c2ccc3ncnc(Nc4ccc(OCc5cccc(F)c5)c(Cl)c4)c3c2)o1 ? -3.37

Sample CN1CCC(C(=O)Nc2n[nH]c3nnc(-c4ccccc4)cc23)CC1 — what was its inhibition? -1.72

Any idea what inhibition was measured for CCn1c(-c2nonc2N)nc2c(C#CC(C)(C)O)nc(CN3CCCC3)cc21 ? -1.03

Using the record for O=C1NC(=O)C(N2CCc3ccccc32)=C1c1ccc(Cl)cc1 , report its inhibition. 1.04

Form field: reported inhibition of CCCN1CCC=C(c2ccc(Nc3nc(Nc4ccccc4C(N)=O)c4cc[nH]c4n3)c(C)c2)C1 4.11

Find the recorded inhibition belonging to Cc1ccc(NC(=O)c2ccnc(N3CCCC3)c2)cc1-c1ccc(C(=O)NCC2CC2)cc1 and report it. -0.5

Fill in the blank: the reported inhibition of Cc1ccc(C(=O)NC2CCCCC2)cc1-c1ccc(C(=O)NCC2CC2)cc1 is ____. 1.95

Return reported inhibition; argument: Cc1nn(C)c2cc(N(C)c3ccnc(Nc4cccc(S(N)(=O)=O)c4)n3)ccc12 -3.4
